Measured Target: Catechol O-methyltransferase (Homo sapiens) (UniProt P21964)
Sequence (P21964 whole entry, looked up): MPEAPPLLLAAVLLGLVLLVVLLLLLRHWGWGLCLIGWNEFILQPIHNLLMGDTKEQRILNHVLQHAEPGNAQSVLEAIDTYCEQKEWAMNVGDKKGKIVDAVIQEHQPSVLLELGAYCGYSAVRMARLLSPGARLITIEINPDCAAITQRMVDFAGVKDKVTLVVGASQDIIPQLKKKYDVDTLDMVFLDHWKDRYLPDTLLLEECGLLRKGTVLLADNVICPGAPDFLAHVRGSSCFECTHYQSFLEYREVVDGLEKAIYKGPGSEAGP
Experiment Summary: Primary Screen for Target Class Profiling of Small Molecule Inhibitors of Methyltransferases; also: % is scaled to controls: 0 for no effect and ±100 for the full control effect
Condition Context: purified enzyme, MTase-Glo SAH luminescence; at 40 µM; hits give low values
In all, about 25,000 compounds went through this assay and about 970 (3.9%) were called active. About 8% were inconclusive and are not listed. For the sample, actives were picked, then their nearest neighbours and some compounds at random.

# Compound, Result Units, activity change, negative = inhibition
records = [
    ("CC(=O)Nc1ccc(-c2ccc3n(c2=O)C[C@H]2C[C@@H]3CN(C3CCN(C)CC3)C2)cc1", "%", -5.08),
    ("CN(C)c1ccc(C2c3cccn3-c3ccccc3CN2C(=O)Nc2ccccc2)cc1 (centres undefined)", "%", -1.13),
    ("CN(C)c1ccc(C2c3cccn3-c3ccccc3CN2C(=O)NCc2ccccc2)cc1 (centres undefined)", "%", 0.57),
    ("COCC1CN(Cc2ccsc2)CC12CCNCC2 (centres undefined)", "%", -8.14),
]
